Biological target: L-lactate dehydrogenase (Plasmodium falciparum (isolate CDC / Honduras))
Test: PfLDH activity inhibition – cell lysate, 3D7 strain, counter-screen for P. falciparum growth inhibition project (AID 2304);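 also: 0% = vehicle and 100% = reference inhibitor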
Settings: P. falciparum 3D7 crude extract, LDH APAD/NBT absorbance; at 2 µM; hits give high values
Calls of active or inactive are those of the source. No rule for the calls is given here.
measurement-type: inhibition

[[record]]
molecule = "N#Cc1cc(N(CCCOc2cccc(OC(F)(F)F)c2)Cc2ccccc2C(F)(F)F)ccc1C(F)(F)F"
measured_on = "L-lactate dehydrogenase (Plasmodium falciparum (isolate CDC / Honduras))"
readout_value = "0% (inactive)"

[[record]]
molecule = "CN(C)Cc1ccc(-c2ccc3ccnc(N)c3c2)cc1"
measured_on = "L-lactate dehydrogenase (Plasmodium falciparum (isolate CDC / Honduras))"
readout_value = "-1% (inactive)"

[[record]]
molecule = "CN(C)C(=O)CC(=O)NCc1cccc(Cl)c1"
measured_on = "L-lactate dehydrogenase (Plasmodium falciparum (isolate CDC / Honduras))"
readout_value = "3% (inactive)"

[[record]]
molecule = "CCC(C(C)C)n1ccc2c3c(N)nc(N)nc3ccc21 (stereo unspecified)"
measured_on = "L-lactate dehydrogenase (Plasmodium falciparum (isolate CDC / Honduras))"
readout_value = "3% (inactive)"

[[record]]
molecule = "C(=Cc1ccccc1)C=NNc1ccnc2ccccc12"
measured_on = "L-lactate dehydrogenase (Plasmodium falciparum (isolate CDC / Honduras))"
readout_value = "5% (inactive)"

[[record]]
molecule = "CCCCN(CCCC)Cc1cc(N(C)c2ccc([N+](=O)[O-])cn2)ccc1O"
measured_on = "L-lactate dehydrogenase (Plasmodium falciparum (isolate CDC / Honduras))"
readout_value = "7% (inactive)"

